Biological target: T1, Anti-PSMA Fab (SEQ ID NOs: 19, 20)
T1 construct: Used biotinylated and captured on neutravidin coated plates; also called 006 PSMA Fab
Assay: phage binding ELISA; biotinylated anti-PSMA Fab on neutravidin plate, wells pre-incubated with PSMA antigen as competitor, anti-M13-HRP detection
Where no end group is shown, it is not given here.
Output fulfilled for records whose Anti-PSMA Fab signal in the presence of PSMA is lower than 0.07, not fulfilled for records at or above 0.07.

As a guide, the following entries are already answered.
{"binder": "SCFSFARLEVVPCD (cysteine pairing not given here; also: displayed on phage as pIII fusion, pIII sequence, linker and fusion order not given here, not shown: pIII coat protein of the bacteriophage to which the peptide is fused) [Phage-1721]", "label.class": "fulfilled"}
{"binder": "IAVLCQPNWMCAGF (cysteine pairing not given here; also: fused to phage pIII (clonal phage display), also called Peptide-180; not shown: pIII coat protein of the bacteriophage to which the peptide is fused) [Phage-1708]", "label.class": "not fulfilled"}
{"binder": "HCLGPALGPVDGDC (cysteine pairing not given here; also: displayed on phage as pIII fusion, pIII sequence, linker and fusion order not given here, not shown: pIII coat protein of the bacteriophage to which the peptide is fused) [Phage-1717]", "label.class": "not fulfilled"}
{"binder": "ILCGLYEALVSECG (cysteine pairing not given here; also: displayed on phage as pIII fusion, pIII sequence, linker and fusion order not given here, not shown: pIII coat protein of the bacteriophage to which the peptide is fused) [Phage-1715]", "label.class": "fulfilled"}
{"binder": "IECAYMTDQRFWCW (cysteine pairing not given here; also: fused to phage pIII (clonal phage display), not shown: pIII coat protein of the bacteriophage to which the peptide is fused) [Phage-1716]", "label.class": "fulfilled"}

Determine whether this binder shows Anti-PSMA Fab signal in the presence of PSMA lower than 0.07 (ties excluded): MEYCSFHRFTCVLW (cysteine pairing not given here; also: displayed on phage as pIII fusion, pIII sequence, linker and fusion order not given here, not shown: pIII coat protein of the bacteriophage to which the peptide is fused) [Phage-1711]
not fulfilled

Please indicate whether the reported Anti-PSMA Fab signal in the presence of PSMA of DCFYAADIHWNYCN (cysteine pairing not given here; also: displayed on phage as pIII fusion, pIII sequence, linker and fusion order not given here, not shown: pIII coat protein of the bacteriophage to which the peptide is fused) [Phage-1719] is strictly below 0.07.
not fulfilled
